- System: D-1 receptor
- Test Protocol: D-1 antagonist activity in adenylate cyclase assay (antagonism of dopamine-induced increase in cAMP)
- Protocol Conditions: 10 μM dopamine; goldfish retina or rat striatum homogenate
Structures can show the parent of a compound that is named as a salt.
Measured Quantity: Ki (µM)

a: CN1CCc2cc(Br)c(O)cc2C2(CCc3ccccc32)C1 (stereo not shown) [Example 18, hydrochloride]
b: COc1cc2c(cc1O)C1(CCc3ccccc31)CNCC2 (stereo not shown) [Example 24, hydrochloride]
Ask: Please indicate which entry, a or b , has the lower recorded Ki value. API: response body contains the label of the selected item.
Result: a
(a: 0.01 µM, b: 0.13 µM)

a: CN1CCc2ccc(O)cc2C2(CCc3ccccc32)C1 (stereo not shown) [Example 14, hydrobromide]
b: CN1CCc2cc([N+](=O)[O-])c(O)cc2C2(CCc3ccccc32)C1 (stereo not shown) [Example 21, hydrochloride]
Ask: Please indicate which entry, a or b , has the lower recorded Ki value. API: response body contains the label of the selected item.
Result: a
